tested on: Plasmodium berghei; test: Screen against P. berghei liver stage (PbLuc), transformed with Luciferase, at 10uM; type: functional, HepG2; conditions: tested at 10 uM
Among all 69,000 compounds or so, about 8,600 (12%) showed an effect of 50% or more. Many of the other results were omitted from the sample, so strong results are more common in it than they were.
// boundary case: INHIBITION equal to 20% maps to F; strictly smaller maps to T

q: For Cc1csc(CCNC(=O)C2CCN(CC(N)=O)CC2)n1 , is the recorded INHIBITION below the cut-off of 20%?
a: T

q: For O=C1CCC(=O)N1CCN1CCN(c2cc(F)ccc2F)CC1 , is the recorded INHIBITION below the cut-off of 20%?
a: F

---

INHIBITION listing for selected compounds.
test system: Plasmodium berghei; experiment: Screen against P. berghei liver stage (PbLuc), transformed with Luciferase, at 10uM; format: functional, HepG2; conditions: tested at 10 uM
Hit rate of the full screen: of about 69,000 compounds, about 8,600 (12%) showed an effect of 50% or more. Only a selection was taken, and strong results are over-represented in it overall.
Report as a plain number; the unit % is understood.

# count of solved cases: 8
Compound: CC(C)NC(=O)c1ccc2nnc(C3CCN(S(C)(=O)=O)C3)n2c1 (centres undefined)
Tested On: Plasmodium berghei
INHIBITION [%]: 10.6
//
Compound: CCc1nc(C2CCCN2CC(=O)Nc2cc(C)on2)no1 (centres undefined)
Tested On: Plasmodium berghei
INHIBITION [%]: 22.3
//
Compound: COCC(O)CN1CC(C)(C)CN(C(=O)CCc2ccccc2)CC1=O (centres undefined)
Tested On: Plasmodium berghei
INHIBITION [%]: -39.8
//
Compound: Cc1csc(C(=O)N2CC(S(=O)(=O)C3CCCCC3)C2)c1
Tested On: Plasmodium berghei
INHIBITION [%]: 75.2
//
Compound: CCc1ccc(CN2CCN(c3ccc(C#N)cc3)C(=O)C2)nc1
Tested On: Plasmodium berghei
INHIBITION [%]: 62.4
//
Compound: CC(C)CO[C@H]1CN(S(=O)(=O)c2cn(C)cn2)[C@@H]2CCCO[C@H]12
Tested On: Plasmodium berghei
INHIBITION [%]: 53.9
//
Compound: CCO[C@@H]1CN(S(=O)(=O)c2cn(C)cn2)[C@@H]2CCCO[C@@H]21
Tested On: Plasmodium berghei
INHIBITION [%]: 2.79
//
Compound: Fc1cc(CN2CCOC3(CCOCC3)C2)ccc1OC(F)F
Tested On: Plasmodium berghei
INHIBITION [%]: 86.7

q: Give recorded INHIBITION with Plasmodium berghei for the following compound: OC1(CNCCCN2CCCc3ccccc32)CNCCOC1 (centres undefined)
a: 45.9

q: Give recorded INHIBITION with Plasmodium berghei for the following compound: CCN(C(=O)c1ccc2nnc(C3CCN(C)C3)n2c1)C(C)C (centres undefined)
a: 27.6

q: Give recorded INHIBITION with Plasmodium berghei for the following compound: CC(=O)N1CCC(c2nnc3ccc(C(=O)NC(C)C)cn23)C1 (centres undefined)
a: 42.6

q: Give recorded INHIBITION with Plasmodium berghei for the following compound: CCC(CC)NC(=O)c1ccc2nnc(C3CCN(S(C)(=O)=O)C3)n2c1 (centres undefined)
a: -1.26

q: Give recorded INHIBITION with Plasmodium berghei for the following compound: Cc1csc(C(=O)N2CCC(S(C)(=O)=O)CC2)c1
a: 43.7

q: Give recorded INHIBITION with Plasmodium berghei for the following compound: CCc1nccn1-c1cccc(C2CCCN(C3CCCCC3)C2)n1 (centres undefined)
a: 24.8
